Every entry's value here was drawn from patent US9521846B2.

# System: HELA cells (Acc57)
# experimental_details: Cytotoxicity assay, MTT reduction (LC 50, GI 50)
# Format: cell-based
Non-standard residues stand in square brackets, D forms with d. Residues, ends and D or L forms follow the SMILES beside them. Nle = CCCC[C@H](N)C(=O)O; Dab = NCC[C@H](N)C(=O)O
reported_property: Cytotoxicity GI50 Hela cells (µM)
// return numeric value only (unit: µM, not printed)

Sample records with Cytotoxicity GI50 Hela cells:
CC[C@H](C)[C@@H]1NC(=O)[C@H](Cc2c[nH]c3ccccc23)NC(=O)[C@H](C)NC(=O)[C@@H]2CCCN2C(=O)[C@H]2CCCN2C(=O)[C@H](CCN)NC(=O)[C@H](C(C)C)NC(=O)[C@H](CCN)NC(=O)[C@H](CCN)NC(=O)[C@H](Cc2c[nH]c3ccccc23)NC(=O)[C@H](CCN)NC(=O)[C@H](CCN)NC(=O)[C@H](CCN)NC(=O)[C@H](CCN)NC1=O [Example 23] (cyclo(AWI[Dab][Dab][Dab][Dab]W[Dab][Dab]V[Dab][dP]P))
13
CC[C@H](C)[C@@H]1NC(=O)[C@H](Cc2c[nH]c3ccccc23)NC(=O)[C@H]([C@@H](C)O)NC(=O)[C@@H]2CCCN2C(=O)[C@H]2CCCN2C(=O)[C@H](CCN)NC(=O)[C@H](C)NC(=O)[C@H](CCN)NC(=O)[C@H](CCCCN)NC(=O)[C@H](Cc2c[nH]c3ccccc23)NC(=O)[C@H](CCN)NC(=O)[C@H](CCN)NC(=O)[C@H](CCCCN)NC(=O)[C@H](CCN)NC1=O [Example 27] (cyclo(TWI[Dab]K[Dab][Dab]WK[Dab]A[Dab][dP]P))
50

Answer with Cytotoxicity GI50 Hela cells of CC[C@H](C)[C@@H]1NC(=O)[C@H](Cc2c[nH]c3ccccc23)NC(=O)[C@H]([C@@H](C)O)NC(=O)[C@@H]2CCCN2C(=O)[C@H]2CCCN2C(=O)[C@H](CCN)NC(=O)[C@H](C)NC(=O)[C@H](CCN)NC(=O)[C@H](CCN)NC(=O)[C@H](Cc2ccc(O)cc2)NC(=O)[C@H](CCN)NC(=O)[C@H](CCN)NC(=O)[C@H](CCCCN)NC(=O)[C@H](CCN)NC1=O [Example 20] (cyclo(TWI[Dab]K[Dab][Dab]Y[Dab][Dab]A[Dab][dP]P)) measured for HELA cells (Acc57). 50

Report its Cytotoxicity GI50 Hela cells with HELA cells (Acc57) as the test system: CCCC[C@@H]1NC(=O)[C@H](CCN)NC(=O)[C@H](CCN)NC(=O)[C@H](Cc2c[nH]c3ccccc23)NC(=O)[C@H](CCN)NC(=O)[C@H](CCN)NC(=O)[C@H](CCCCN)NC(=O)[C@H](CCN)NC(=O)[C@H]([C@@H](C)CC)NC(=O)[C@H](Cc2c[nH]c3ccccc23)NC(=O)[C@H]([C@@H](C)O)NC(=O)[C@@H]2CCCN2C(=O)[C@H]2CCCN2C(=O)[C@H](CCN)NC1=O [Example 9] (cyclo(TWI[Dab]K[Dab][Dab]W[Dab][Dab][Nle][Dab][dP]P)) 50

Identify measured Cytotoxicity GI50 Hela cells obtained with HELA cells (Acc57) for CCCC[C@@H]1NC(=O)[C@H](Cc2c[nH]c3ccccc23)NC(=O)[C@H]([C@@H](C)O)NC(=O)[C@@H]2CCCN2C(=O)[C@H]2CCCN2C(=O)[C@H](CCN)NC(=O)[C@H](C)NC(=O)[C@H](CCN)NC(=O)[C@H](CCN)NC(=O)[C@H](Cc2c[nH]c3ccccc23)NC(=O)[C@H](CCN)NC(=O)[C@H](CCN)NC(=O)[C@H](CCCCN)NC(=O)[C@H](CCN)NC1=O [Example 31] (cyclo(TW[Nle][Dab]K[Dab][Dab]W[Dab][Dab]A[Dab][dP]P)) . 50
